assay: logP by HPLC on reversed phase columns (EEC directive 79/831 Annex V.A8); type: physicochemical; settings: method [a]: LC-MS at pH 2.7, 0.1% formic acid in water / acetonitrile
// values below are reported logP

Please give the measured logP for this compound: CC(C)C1OC(C)(C)c2cccc(NC(=O)c3c(C(F)F)nn(C)c3Br)c21 (centres unmarked) [Example 17]
3.33[a]

Another compound: CCC1(CC)OC(C(C)C)c2c(NC(=O)c3cn(C)nc3C(F)F)cccc21 (centres unmarked) [Example 12]
3.63[a]

Another compound: CCC1(CC)OC(C)c2c(NC(=O)c3c(C(F)F)nn(C)c3Cl)cccc21 (centres unmarked) [Example 9]
3.48[a]

* * *

tested on: Puccinia recondita; assay: In vivo preventive test on Puccinia recondita (brown rust on wheat); conditions: 100 ppm, wheat plants, preventive spray, grading 12 days after contamination
Readout Kind: Eff. % (%)
Unit % implied. Number only.

Please give the measured Eff. % for this molecule: CCC1OC(C)(C)c2cccc(NC(=O)c3cn(C)nc3C(F)F)c21 (stereo not drawn)
98

Another molecule: CC(C)C1OC(C)(C)c2cccc(NC(=O)c3c(C(F)F)nn(C)c3Cl)c21 (stereo not drawn)
98

Another molecule: CCC1OC(CC)(CC)c2cccc(NC(=O)c3c(C(F)F)nn(C)c3F)c21 (stereo not drawn)
98

* * *

assay: logP by HPLC on reversed phase columns (EEC directive 79/831 Annex V.A8); assay type: physicochemical; conditions: reversed phase HPLC columns; method [a]: LC-MS at pH 2.7, 0.1% formic acid in water / acetonitrile
Readout Kind: chromatographic logP
Write no unit; give the number alone.

- Compound: "CC(C)C1OC(C)(C)c2cccc(NC(=O)c3c(C(F)F)nn(C)c3F)c21 (centres unmarked) [Example 22]"
  chromatographic logP: 3.11

Now consider a different compound.
Please give the measured chromatographic logP for this compound: CCC1OC(CC)(CC)c2cccc(NC(=S)c3cn(C)nc3C(F)F)c21 (centres unmarked) [Example 26]
3.76

* * *

system: Pyrenophora teres; assay: In vivo preventive test on Pyrenophora teres (net blotch on barley); conditions: 100 ppm, barley plants, preventive spray, grading 14 days after contamination
// values below are reported Eff. %
Unit % implied. Number only.

- Molecule: "CC(C)C1OC(C)(C)c2cccc(NC(=O)c3c(C(F)F)nn(C)c3F)c21 (stereo not drawn)"
  Unit Annotation: "%"
  Test Value: 97

What Eff. % appears in the records for this molecule with Pyrenophora teres? CC(C)C1OC(C)(C)c2cccc(NC(=O)c3cn(C)nc3C(F)F)c21 (stereo not drawn)
83

Another molecule: CCC1OC(CC)(CC)c2cccc(NC(=O)c3c(C(F)F)nn(C)c3Cl)c21 (stereo not drawn)
83

Another molecule: CCC1OC(CC)(CC)c2cccc(NC(=O)c3cn(C)nc3C(F)F)c21 (stereo not drawn)
92

Another molecule: CCC1OC(C)(C)c2cccc(NC(=O)c3c(C(F)F)nn(C)c3Cl)c21 (stereo not drawn)
92

Another molecule: CCC1OC(C)(C)c2cccc(NC(=O)c3cn(C)nc3C(F)F)c21 (stereo not drawn)
83

Another molecule: CCC1OC(CC)(CC)c2cccc(NC(=O)c3c(C(F)F)nn(C)c3F)c21 (stereo not drawn)
83

Another molecule: CC(C)C1OC(C)(C)c2cccc(NC(=O)c3c(C(F)F)nn(C)c3Br)c21 (stereo not drawn)
83

Another molecule: CC(C)C1OC(C)(C)c2cccc(NC(=O)c3c(C(F)F)nn(C)c3Cl)c21 (stereo not drawn)
92

Values were extracted from patent US9375006B2.
